Ki values for Tyrosine-protein kinase JAK2 (Homo sapiens) compiled from several publications are listed below.

Previously resolved entries follow.
> print(dat)
                                   molecule       obs.value
1  C[C@H]1CC[C@H](O)CN1c1ccn(-c2cc(-c3c(F)cccc3C#N)nc3c2C(=O)NC3)n1    10 to 100 nM
2  CC(C)NC(=O)C(C)n1cc(-c2ncnc3[nH]ccc23)cn1 (stereo not shown)   100 to 500 nM
3  C[C@H](Nc1cc(C(=O)N(C)CCO)nc(-c2c[nH]c3ncncc23)n1)C(=O)NCC(F)(F)F  500 to 5000 nM

Look at this molecule and give its reported Ki. C[C@@H](Nc1nc(-c2c[nH]c3ncncc23)ncc1F)C(=O)N(C)CC(F)(F)F 500 to 5000 nM

Look at this molecule and give its reported Ki. C[C@H](Nc1cc(-c2c(N)nn3cccnc23)nc(OCC(F)(F)F)n1)c1ccc(F)cc1 < 10 nM

Look at this molecule and give its reported Ki. O=C(Nc1nc(-c2ncnc3[nH]ccc23)cs1)C(O)c1ccccc1 (stereo not shown) < 100 nM

Look at this molecule and give its reported Ki. N#Cc1cccc(F)c1-c1cc(-n2ccc(N3CCC[C@H](O)C3)n2)c2c(n1)CNC2=O 0.1 to 10 nM

====

Ki values for Tyrosine-protein kinase JAK2 (Homo sapiens, UniProt O60674) compiled from several publications are listed below.

> print(dat)
                                   compound       obs.value
1  COc1cc(C2Nc3ccccc3-c3ncnc4[nH]cc2c34)cc(OC)c1O (centres unmarked)  250 to 2500 nM

Look at this compound and give its reported Ki. N#CCCCCc1ncnc2[nH]ccc12 500 to 5000 nM

Look at this compound and give its reported Ki. C[C@H](Nc1cc(-c2cnn3cccnc23)nc(NC(=O)CCN2CCCC2=O)n1)c1ccc(F)cc1F < 10 nM

Look at this compound and give its reported Ki. C[C@H](Nc1cc(-c2c(N)nn3cccnc23)nc(OCC2CCOC2)n1)c1ccc(F)cc1 (some centres unmarked) < 10 nM

Look at this compound and give its reported Ki. CC(C)(CC(=O)O)CC(=O)Nc1nc(-c2ncnc3[nH]ccc23)cs1 100 to 500 nM

Look at this compound and give its reported Ki. Cc1c[nH]c2ncnc(-c3cnn(C)c3)c12 100 to 500 nM

Look at this compound and give its reported Ki. O=C(NCC(F)(F)F)[C@@H]1CCCCN1c1nc(-c2c[nH]c3ncc(Cl)cc23)ncc1F ≥ 5000 nM

Look at this compound and give its reported Ki. C[C@H](Nc1cc(C(=O)N2CCOCC2)nc(-c2c[nH]c3ncncc23)n1)C(=O)NCC(F)(F)F 500 to 5000 nM

Look at this compound and give its reported Ki. N#Cc1cccc(F)c1-c1cc(-n2ccc(N3CC[C@@H](O)[C@@H](O)C3)n2)c2c(n1)CNC2=O 0.1 to 10 nM

Look at this compound and give its reported Ki. N#CCN(Cc1ccccc1)C(=O)c1ccc(-c2ncnc3[nH]ccc23)o1 < 100 nM

====

pKi values for Tyrosine-protein kinase JAK2 (Homo sapiens, UniProt O60674) compiled from several publications are listed below.
pKi: −log10 of the molar value.

Previously resolved entries follow.
> print(dat)
                                   molecule  parameter      obs.value
1  C#CC(CC)Oc1nc(N[C@@H](C)c2ccc(F)cc2)cc(-c2c(N)nn3cccnc23)n1 (some centres unmarked)        pKi         > 8.00
2  CCCNC(=O)c1cc(N2CCC[C@@H]2C(=O)NCC(F)(F)F)nc(-c2c[nH]c3ncc(Cl)cc23)n1        pKi         ≤ 5.30
3  N#Cc1cccc(F)c1-c1cc(-n2ccc(N3CCCC(N)(C(F)(F)F)C3)n2)c2c(n1)CNC2=O (centres unmarked)        pKi  8.00 to 10.00
4  O=C(c1cc(-c2ncnc3[nH]ccc23)co1)N(CC1CCC1)CC(F)(F)F        pKi   6.30 to 7.00
5  CCN(CCC#N)C(=O)c1cc(-c2ncnc3[nH]ccc23)cn1C        pKi         > 7.00

Query pKi on Tyrosine-protein kinase JAK2 (Homo sapiens, UniProt O60674) for C1=C(c2ncnc3[nH]ccc23)C2CCC1C2 (centres unmarked) > 6.30

Query pKi on Tyrosine-protein kinase JAK2 (Homo sapiens, UniProt O60674) for CCCNC(=O)C(C)n1cc(-c2ncnc3[nH]ccc23)cn1 (centres unmarked) 6.30 to 7.00

Query pKi on Tyrosine-protein kinase JAK2 (Homo sapiens, UniProt O60674) for Cc1c[nH]c2ncnc(-c3c[nH]c(C(=O)N(C)CCc4ccccc4)c3)c12 > 7.00

====

Ki values for Tyrosine-protein kinase JAK2 (Homo sapiens) compiled from several publications are listed below.

Previously resolved entries follow.
> print(dat)
                                   compound                             system.tested  parameter     obs.value
1  CN(Cc1cccnc1)c1cc(-c2c(N)nn3cccnc23)ncn1  Tyrosine-protein kinase JAK2 (Homo sapiens)         Ki  10 to 100 nM
2  Cc1cc(Nc2cc(N3CCC3)nc(Sc3ccc(NC(=O)c4cccc(F)c4F)cc3)n2)[nH]n1  Tyrosine-protein kinase JAK2 (Homo sapiens)         Ki         41 nM

Look at this compound and give its reported Ki. CC(C(=O)N(C)C)n1cc(-c2ncnc3[nH]ccc23)cn1 (stereo not shown) 100 to 500 nM

====

pKi values for Tyrosine-protein kinase JAK2 (Homo sapiens, UniProt O60674) compiled from several publications are listed below.
pKi: −log10 of the molar value.

> print(dat)
                         structure.notation      obs.value
1  Nc1nn2cccnc2c1-c1cc(O[C@H](c2ccccc2)C(F)(F)F)ncn1   7.00 to 8.00
2  CC(C)OCCOc1nc(N[C@@H](C)c2ccc(F)cc2)cc(-c2c(N)nn3cccnc23)n1         > 8.00
3  N#Cc1cccc(F)c1-c1cc(-n2ccc(N3CCCNC(=O)C3)n2)c2c(n1)CNC2=O  8.00 to 10.00

Look at this compound and give its reported pKi. CC(C)CC(=O)N(CCCC(F)(F)F)c1nc(-c2ncnc3[nH]ccc23)cs1 > 7.00

====

Ki values for Tyrosine-protein kinase JAK2 (Homo sapiens) compiled from several publications are listed below.

> print(dat)
                                   compound  parameter       obs.value
1  O=C1NCc2nc(-c3c(F)cccc3F)cc(-n3ccc(N4CCC5(CCOCC5)CC4)n3)c21         Ki  100 to 1000 nM
2  O=C(O)CCC(=O)Nc1nc(-c2ncnc3[nH]ccc23)cs1         Ki   100 to 500 nM
3  N#Cc1cccc(F)c1-c1cc(-n2ccc(C3CCCO3)n2)c2c(n1)CNC2=O (stereo not shown)         Ki    10 to 100 nM
4  C[C@H](Nc1ccnc(-c2cnn3cccnc23)n1)c1ccc(F)cc1         Ki    10 to 100 nM
5  O=C(NCC(F)(F)F)C(CC(F)(F)F)Nc1nc(-c2c[nH]c3ncncc23)ncc1F (stereo not shown)         Ki        < 500 nM
6  CN(CCC#N)C(=O)c1ccc(-c2ncnc3[nH]ccc23)o1         Ki        < 100 nM
7  COCCNC(=O)C(C)n1cc(-c2ncnc3[nH]ccc23)cn1 (stereo not shown)         Ki  500 to 5000 nM
8  O=C1NCc2nc(-c3c(F)cccc3F)nc(Nc3ccc(C(O)C(F)(F)F)cc3)c21 (stereo not shown)         Ki  100 to 1000 nM

Query Ki on Tyrosine-protein kinase JAK2 (Homo sapiens) for CO[C@@H]1CCN(c2ccn(-c3cc(-c4c(F)cccc4C#N)nc4c3C(=O)NC4)n2)C[C@H]1O 0.1 to 10 nM

Query Ki on Tyrosine-protein kinase JAK2 (Homo sapiens) for N#Cc1cccc(F)c1-c1cc(-n2ccc(N3CCC(C#N)C3)n2)c2c(n1)CNC2=O (stereo not shown) 0.1 to 10 nM

Query Ki on Tyrosine-protein kinase JAK2 (Homo sapiens) for N#CCC1Nc2ccccc2-c2ccnc3[nH]cc1c23 (stereo not shown) < 250 nM

Query Ki on Tyrosine-protein kinase JAK2 (Homo sapiens) for CC[C@H](Nc1cc(-c2c(N)nn3cccnc23)ncn1)c1ccc(F)c(F)c1 < 10 nM

Query Ki on Tyrosine-protein kinase JAK2 (Homo sapiens) for CC(C)Oc1nc(N[C@@H](C)c2ccc(F)cc2F)cc(-c2c(N)nn3cccnc23)n1 10 to 100 nM

Query Ki on Tyrosine-protein kinase JAK2 (Homo sapiens) for N#Cc1cccc(F)c1-c1cc(-n2ccc(N3CCC[C@@H](O)C3)n2)c2c(n1)CNC2=O 10 to 100 nM

Query Ki on Tyrosine-protein kinase JAK2 (Homo sapiens) for Nc1nn2cccnc2c1-c1cc(OC(c2ccccc2)C2CC2)ncn1 (stereo not shown) 500 to 5000 nM

Query Ki on Tyrosine-protein kinase JAK2 (Homo sapiens) for C[C@@H](Nc1cc(-c2cnn3cccnc23)ncn1)c1ccc(Cl)cc1 10 to 100 nM
